Data origin: patent US6858210B1

Tested on: rabbit anti-human β2GPI
assay explanation: Micropanning of mutant domain 1 phage, rabbit antibody
Format: binding
Design: key: 0 (<10 colonies) to 4+ (confluent) semiquantitative colony score
run parameters: Table 7B, 5th column
property name: Micropan score

molecule	value reported
Dom5: phage displaying wild type (WT) domain 5 (protein, left off: large carriers) CKLPVKKATVVYQGERVKIQEKFKNGMLHGDKVSFFCKNKEKKCSYTEDAQCIDGTIEVPKCFKEHSSLAFWKTDASDVKPC	0 (0 symbolizing <10 colonies)
3B4: phage clone, domain 1 mutant S38T (protein) GRTCPKPDDLPFSTVVPLKTFYEPGEEITYSCKPGYVTRGGMRKFICPLTGLWPINTLKCTPRV	4
4D1: phage clone, domain 1 multiple mutant N56T, R63G (protein) GRTCPKPDDLPFSTVVPLKTFYEPGEEITYSCKPGYVSRGGMRKFICPLTGLWPITTLKCTPGV	4

Sure, the documented Micropan score for 4A6: phage clone, domain 1 mutant D8G (protein) GRTCPKPGDLPFSTVVPLKTFYEPGEEITYSCKPGYVSRGGMRKFICPLTGLWPINTLKCTPRV is 4
